# MEASUREMENT TARGET: total adenosine A2A receptors (Rattus norvegicus, UniProt P30543)
# Sequence (P30543 whole entry): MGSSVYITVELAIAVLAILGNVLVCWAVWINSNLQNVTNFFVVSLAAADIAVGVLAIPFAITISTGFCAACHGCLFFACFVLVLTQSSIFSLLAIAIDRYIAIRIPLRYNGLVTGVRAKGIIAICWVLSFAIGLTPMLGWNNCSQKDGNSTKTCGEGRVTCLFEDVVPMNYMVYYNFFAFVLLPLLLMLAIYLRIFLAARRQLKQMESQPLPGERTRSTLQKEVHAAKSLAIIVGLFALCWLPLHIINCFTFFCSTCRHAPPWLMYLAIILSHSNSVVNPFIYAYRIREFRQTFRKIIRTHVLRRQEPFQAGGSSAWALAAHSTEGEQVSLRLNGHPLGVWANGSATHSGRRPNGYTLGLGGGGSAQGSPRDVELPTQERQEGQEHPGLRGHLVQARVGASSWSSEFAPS
# TEST METHOD NOTES: Displacement of [3H]CGS21680 binding in rat striatal membranes, compounds alone (total)
# ASSAY SETUP: rat striatal membranes; 30 nM [3H]CGS21680; mean (95% CI) of 3-4 experiments; read-out: Ki values (nM) in striatum, Total
MEASURED QUANTITY: Ki (nM)
Numeric answer only, unit nM assumed.

Asked: Name the recorded Ki of the item CCCCc1nc(N)c2nc(-n3nccn3)n(C)c2n1 [ST1535] in your answer.
Given back: 22.8

====

# MEASUREMENT TARGET: atypical adenosine A2A receptors
# TEST METHOD NOTES: Displacement of [3H]CGS21680 binding in rat hippocampus in the presence of CSC (atypical sites)
# ASSAY SETUP: Figure 5; rat hippocampus; 200 nmol/L CSC; (95% CI)
MEASURED QUANTITY: pIC50
Note: pIC50 values are expressed as the negative base-10 logarithm of concentration in M.

Asked: Name the recorded pIC50 of the item CCCCc1nc(N)c2nc(-n3nccn3)n(C)c2n1 in your answer.
Given back: 6.35
